- experiment.summary: Mouse pharmacokinetic (PK) study, parent compound and psilocin metabolite in plasma
- Type: in vivo, C57Bl/6 mice
- applied.conditions: male, C57Bl/6, mouse, plasma, po, 3 mg/kg, 3 mg/kg oral; no footnote on basis (Table 36B); mean ± SD
outcome.measure: bioavailability (%)
The answer is to be given in %; state only the numeric part.

Give the measured bioavailability of `CN(C)CCc1c[nH]c2cccc(OC(=O)c3cccc4c3OCCO4)c12` .
0.953

* * *

- experiment.summary: Mouse pharmacokinetic (PK) study, parent compound and psilocin metabolite in plasma
- Type: in vivo, C57Bl/6 mice
- applied.conditions: male, C57Bl/6, mouse, plasma, po, 1 mg/kg, 1 mg/kg oral; AUC0-tlast used for p.o. group, value might be under-estimated; mean ± SD
outcome.measure: bioavailability (%)
The answer is to be given in %; state only the numeric part.

Give the measured bioavailability of `CN(C)CCc1c[nH]c2cccc(OC(=O)c3ccc(Br)cc3)c12` .
0.355

* * *

- experimental.system: 5-HT1A receptor (Homo sapiens, UniProt P08908)
- Construct: host or cells: CHO-K1 (co-expressing Ga15)
- Sequence (P08908 whole entry): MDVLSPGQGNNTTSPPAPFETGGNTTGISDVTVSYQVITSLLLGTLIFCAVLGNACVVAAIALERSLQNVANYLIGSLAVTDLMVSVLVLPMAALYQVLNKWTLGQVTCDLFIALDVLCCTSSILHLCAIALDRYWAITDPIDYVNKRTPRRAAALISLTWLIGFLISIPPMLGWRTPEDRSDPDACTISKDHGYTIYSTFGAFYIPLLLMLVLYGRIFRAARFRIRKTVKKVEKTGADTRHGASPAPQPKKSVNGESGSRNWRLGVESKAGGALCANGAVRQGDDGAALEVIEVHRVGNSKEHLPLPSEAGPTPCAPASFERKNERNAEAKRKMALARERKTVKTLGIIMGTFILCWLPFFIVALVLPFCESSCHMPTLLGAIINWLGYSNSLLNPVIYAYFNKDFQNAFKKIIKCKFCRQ
- experiment.summary: cAMP-Glo assay of 5-HT1A receptor modulation, +5-HT1A (CHO-K1/5-HT1A/Ga15) vs -5-HT1A (CHO-K1/Ga15) cells
- Format: cell-based
- Set-up: dose or concentration left out as unconfirmed
- applied.conditions: +5-HT1A vs -5-HT1A cell cultures stimulated with forskolin, increasing ligand concentrations
outcome.measure: 5-HT1A receptor modulation (reduction of cAMP levels)

* CN(C)CCc1c[nH]c2cccc(O)c12 [psilocin, reference compound] | reduction in cAMP levels
* NCCc1c[nH]c2ccc(O)cc12 [serotonin, reference compound] | reduction in cAMP levels

* * *

- experiment.summary: Mouse pharmacokinetic (PK) study, parent compound and psilocin metabolite in plasma
- Assay type: in vivo, C57Bl/6 mice
- applied.conditions: male, C57Bl/6, mouse, plasma, po, 10 mg/kg, 10 mg/kg oral; AUC0-tlast used for p.o. group; mean ± SD
outcome.measure: bioavailability (%)
The answer is to be given in %; state only the numeric part.

Give the measured bioavailability of CN(C)CCc1c[nH]c2cccc(OC(=O)c3ccc(Br)cc3)c12 [C(I)] .
0.498

* * *

- experiment.summary: Mouse pharmacokinetic (PK) study, parent compound and psilocin metabolite in plasma
- Assay type: in vivo, C57Bl/6 mice
- applied.conditions: male, C57Bl/6, plasma, iv; mouse; 1 mg/kg i.v.; individual animals; read-out: tmax of administered (parent) compound
outcome.measure: tmax (min)
The answer is to be given in min; state only the numeric part.

Give the measured tmax of CN(C)CCc1c[nH]c2cccc(OP(=O)(O)O)c12 [psilocybin, reference compound] .
5

* * *

- experimental.system: GABAA (Homo sapiens, UniProt P14867+P18507+P47870)
- Sequence (P14867 28-456): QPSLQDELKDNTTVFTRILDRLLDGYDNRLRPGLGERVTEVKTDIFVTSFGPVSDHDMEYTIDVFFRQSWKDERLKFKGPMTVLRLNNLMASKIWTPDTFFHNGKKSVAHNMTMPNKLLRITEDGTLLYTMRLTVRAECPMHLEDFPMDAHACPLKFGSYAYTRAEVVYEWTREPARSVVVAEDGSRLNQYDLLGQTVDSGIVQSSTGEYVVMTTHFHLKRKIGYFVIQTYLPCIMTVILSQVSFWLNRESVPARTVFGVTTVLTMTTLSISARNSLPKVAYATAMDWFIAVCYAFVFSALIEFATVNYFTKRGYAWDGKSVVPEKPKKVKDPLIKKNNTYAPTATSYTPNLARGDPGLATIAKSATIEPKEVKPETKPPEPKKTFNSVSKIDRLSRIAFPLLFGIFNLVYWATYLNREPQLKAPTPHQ
- Sequence (P47870 26-512): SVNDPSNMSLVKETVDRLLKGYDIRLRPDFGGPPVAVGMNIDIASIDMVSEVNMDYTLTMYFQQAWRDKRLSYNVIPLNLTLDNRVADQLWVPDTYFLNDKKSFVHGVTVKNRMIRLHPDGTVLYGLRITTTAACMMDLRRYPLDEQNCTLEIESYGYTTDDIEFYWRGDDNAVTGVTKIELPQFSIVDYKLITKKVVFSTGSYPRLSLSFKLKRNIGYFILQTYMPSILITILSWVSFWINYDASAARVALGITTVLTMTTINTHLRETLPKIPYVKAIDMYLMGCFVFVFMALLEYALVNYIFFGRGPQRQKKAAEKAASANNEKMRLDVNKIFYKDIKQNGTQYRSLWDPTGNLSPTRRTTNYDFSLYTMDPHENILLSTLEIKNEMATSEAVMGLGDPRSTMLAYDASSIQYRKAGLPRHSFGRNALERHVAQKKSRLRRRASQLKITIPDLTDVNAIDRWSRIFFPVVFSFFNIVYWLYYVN
- Sequence (P18507 40-475): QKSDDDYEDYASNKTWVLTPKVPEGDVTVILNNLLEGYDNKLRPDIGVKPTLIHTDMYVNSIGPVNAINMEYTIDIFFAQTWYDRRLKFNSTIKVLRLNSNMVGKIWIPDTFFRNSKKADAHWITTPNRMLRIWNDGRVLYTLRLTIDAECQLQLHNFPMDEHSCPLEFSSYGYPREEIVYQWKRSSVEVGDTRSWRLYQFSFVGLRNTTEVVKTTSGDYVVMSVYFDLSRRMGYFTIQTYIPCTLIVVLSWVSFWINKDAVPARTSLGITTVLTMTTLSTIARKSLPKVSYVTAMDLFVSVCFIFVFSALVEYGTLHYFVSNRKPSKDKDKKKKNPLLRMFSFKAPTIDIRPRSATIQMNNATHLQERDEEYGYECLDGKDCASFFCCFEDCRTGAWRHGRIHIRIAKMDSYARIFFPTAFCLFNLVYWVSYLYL
- Format: cell-based
- applied.conditions: ion channel, opener (OP) mode
pEC50: −log10 of the molar value.
outcome.measure: pEC50

Give the measured pEC50 of COc1ccc(C(=O)Oc2cccc3[nH]cc(CCN(C)C)c23)cc1 [C(V)] .
< 4.00

* * *

- experiment.summary: Mouse pharmacokinetic (PK) study, parent compound and psilocin metabolite in plasma
- Format: in vivo, C57Bl/6 mice
- applied.conditions: male, C57Bl/6, mouse, plasma, po, 3 mg/kg, 3 mg/kg oral; AUC0-tlast used for p.o. group, value might be under-estimated; individual animals
outcome.measure: bioavailability (%)
The answer is to be given in %; state only the numeric part.

Give the measured bioavailability of `CN(C)CCc1c[nH]c2cccc(OC(=O)c3ccc(Br)cc3)c12` .
0.466
